System: UACC-257
PROTOCOL TEXT: NCI tumour cell line growth inhibition, 48 h
The source made the active and inactive calls. No stated cut-off is given here; in the data, active = GI50 up to about 1.1 µM and inactive = higher.
Outcomes you can answer with include only these: class 1 for active, class 0 for inactive

Solved entries:
Oc1ccc2c3c1OC1c4[nH]c5c(c4CC4(O)C(C2)N(CC2CC2)CC[C@]314)CC1(O)C2Cc3ccc(O)c4c3[C@@]1(CCN2CC1CC1)C5O4 (some centres not stated)
class 0
CCOC(=O)/C=C/n1c2ccccc2c(=O)c2ccccc21
class 0
CCO/C(=N/S(=O)(=O)C(F)(F)F)N(C(C)C)C(C)C
class 0
CN1N=CSC12C(=O)N(c1ccccc1)C(=O)N2c1ccccc1 (configuration not stated)
class 0

Moving on to the next molecule.
-- ask Please state the recorded outcome for this molecule: `O=c1cc(-c2ccccc2)[nH]c2ccc(N3CCOCC3)cc12`
-- reply class 0

Origin of the recorded values: ChEMBL document CHEMBL1201862
